study target: T1, biotinylated recombinant mouse IL-12Rβ2 (produced in-house) (mouse, UniProt P97378 24-637, random biotinylated)
T1 construct: also called mIL-12RB2; mIL12RB2
T1 sequence: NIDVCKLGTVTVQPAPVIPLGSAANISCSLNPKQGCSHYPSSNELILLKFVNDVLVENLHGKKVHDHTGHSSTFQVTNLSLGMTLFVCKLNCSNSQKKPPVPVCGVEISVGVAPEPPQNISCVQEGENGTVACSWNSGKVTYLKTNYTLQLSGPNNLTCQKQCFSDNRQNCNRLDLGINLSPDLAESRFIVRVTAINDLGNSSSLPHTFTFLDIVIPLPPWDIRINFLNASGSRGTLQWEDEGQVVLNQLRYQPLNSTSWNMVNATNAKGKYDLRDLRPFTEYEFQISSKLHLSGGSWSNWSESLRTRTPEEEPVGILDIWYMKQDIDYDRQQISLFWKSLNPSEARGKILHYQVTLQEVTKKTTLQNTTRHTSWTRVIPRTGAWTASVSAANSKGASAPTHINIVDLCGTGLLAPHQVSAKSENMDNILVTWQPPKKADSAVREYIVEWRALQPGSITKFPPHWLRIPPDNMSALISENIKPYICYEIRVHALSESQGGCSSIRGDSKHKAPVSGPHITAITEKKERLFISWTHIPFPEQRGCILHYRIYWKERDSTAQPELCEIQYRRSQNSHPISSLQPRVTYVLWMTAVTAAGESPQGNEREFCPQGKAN
test name: ELISA, P.E. VHH on biotinylated mIL-12RB2, signal ratio to control well
measured endpoint: ELISA mIL12RB2/control
Reply with just the number.

Answered cases to consult:
Q: // lookup ELISA mIL12RB2/control for anti-IL-12Rβ2 VHH clone 3CRHM73 (VHH, not shown: small tags and cut ends, tested as periplasmic extract; also called 21060) VHH: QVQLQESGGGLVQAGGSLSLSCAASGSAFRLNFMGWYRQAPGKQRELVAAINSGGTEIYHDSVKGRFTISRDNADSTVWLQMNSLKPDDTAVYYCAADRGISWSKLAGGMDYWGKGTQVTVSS
A: 26.3

Q: // lookup ELISA mIL12RB2/control for anti-IL-12Rβ2 VHH clone 3CAHS124 (VHH, not shown: small tags and cut ends, tested as periplasmic extract) VHH: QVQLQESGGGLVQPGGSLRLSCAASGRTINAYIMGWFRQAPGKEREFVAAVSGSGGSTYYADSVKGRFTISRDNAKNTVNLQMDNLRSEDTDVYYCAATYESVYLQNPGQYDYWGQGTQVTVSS
A: 1

Q: // lookup ELISA mIL12RB2/control for anti-IL-12Rβ2 VHH clone 2CRH82 (VHH, not shown: small tags and cut ends, tested as periplasmic extract) VHH: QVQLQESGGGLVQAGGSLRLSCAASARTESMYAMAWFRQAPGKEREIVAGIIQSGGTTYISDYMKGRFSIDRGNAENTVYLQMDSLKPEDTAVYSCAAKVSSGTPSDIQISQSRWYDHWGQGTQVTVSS
A: 1.77

New cases:
Q: // lookup ELISA mIL12RB2/control for anti-IL-12Rβ2 VHH clone 3CRHM14 (VHH, not shown: small tags and cut ends, tested as periplasmic extract) VHH: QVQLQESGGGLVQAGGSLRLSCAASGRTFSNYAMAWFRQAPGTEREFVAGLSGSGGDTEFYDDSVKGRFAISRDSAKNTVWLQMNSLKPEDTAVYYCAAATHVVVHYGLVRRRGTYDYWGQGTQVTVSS
A: 25.1
